The values you see were collected from ChEMBL document CHEMBL3872258.

pEC50 overview
target: Muscarinic acetylcholine receptor M1 (Homo sapiens); assay: Displacement of [3H]-N-Methylscopolamine from human M1 receptor expressed in CHOK1 cells
pEC50: −log10 of the molar value.

Worked set:
Cc1nnc2sc(C(=O)NCc3ccc(S(=O)(=O)C(F)(F)F)cc3)c(N)c2c1C | < 4.52
Cc1nnc2sc(C(=O)NCc3ccc(S(F)(F)(F)(F)F)cc3)c(N)c2c1C | < 4.52

Consider the additional compound presented here.
**Query** Field: pEC50 (Muscarinic acetylcholine receptor M1 (Homo sapiens)). Entry: Cc1nnc2sc(C(=O)NCc3ccc(S(=O)(=O)C(F)F)cc3)c(N)c2c1C
**Result** < 4.52

====

Emax overview
biological target: Muscarinic acetylcholine receptor M4 (Rattus norvegicus) (UniProt P08485); assay: Positive allosteric modulation of rat M4 receptor expressed in CHO cells co-expressing Gqui5 by calcium mobilization assay relative to acetylcholine; assay type: functional, cell-based
Sequence (P08485 whole entry): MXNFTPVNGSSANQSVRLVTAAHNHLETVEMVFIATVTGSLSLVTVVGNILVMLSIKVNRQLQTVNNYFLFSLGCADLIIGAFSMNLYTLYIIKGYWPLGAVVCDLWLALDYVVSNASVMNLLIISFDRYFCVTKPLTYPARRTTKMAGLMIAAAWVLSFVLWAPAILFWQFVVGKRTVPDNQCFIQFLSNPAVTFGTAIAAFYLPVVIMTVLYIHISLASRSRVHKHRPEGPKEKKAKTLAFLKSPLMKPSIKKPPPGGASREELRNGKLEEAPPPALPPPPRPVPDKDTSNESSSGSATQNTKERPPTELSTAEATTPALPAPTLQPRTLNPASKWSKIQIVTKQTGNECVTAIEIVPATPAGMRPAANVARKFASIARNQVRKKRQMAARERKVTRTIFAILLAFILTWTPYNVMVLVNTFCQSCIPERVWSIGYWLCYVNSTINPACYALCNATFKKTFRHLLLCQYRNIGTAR
# include the unit after the value

Worked set:
Cc1nnc2sc(C(=O)NCc3ccc(S(=O)(=O)C(F)F)cc3)c(N)c2c1C | 65.2%
CSc1ccc(CNC(=O)c2sc3nnc(C)c(C)c3c2N)cc1 | 75.6%
Cc1nnc2sc(C(=O)NCc3ccc(S(F)(F)(F)(F)F)cc3)c(N)c2c1C | 75.7%
Cc1nnc2sc(C(=O)NCc3ccc(S(C)(=O)=O)cc3)c(N)c2c1C | 72.6%

Consider the additional molecule presented here.
**Query** Which Emax reading was recorded for the molecule Cc1nnc2sc(C(=O)NCc3ccc(S(=O)(=O)C(F)(F)F)cc3)c(N)c2c1C ?
**Result** 68.1%

====

biological target: Muscarinic acetylcholine receptor M4 (Rattus norvegicus); assay: Positive allosteric modulation of rat M4 receptor expressed in CHO cells co-expressing Gqui5 by calcium mobilization assay
Sequence (P08485 whole entry): as above
quantityKind: pEC50
Quick note: pEC50 values are minus log10 of concentrations in mol/L.

Cc1nnc2sc(C(=O)NCc3ccc(S(=O)(=O)C(C)(C)C)cc3)c(N)c2c1C | 7.35
Cc1nnc2sc(C(=O)NCc3ccc(S(F)(F)(F)(F)F)cc3)c(N)c2c1C | 7.52
Cc1nnc2sc(C(=O)NCc3ccc(S(=O)(=O)C(F)F)c(F)c3)c(N)c2c1C | 7.63
Cc1nnc2sc(C(=O)NCc3ccc(S(=O)(=O)C(C)C)cc3)c(N)c2c1C | 7.32
CSc1ccc(CNC(=O)c2sc3nnc(C)c(C)c3c2N)cc1 | 7.95

**Query** Which pEC50 reading was recorded for the compound Cc1nnc2sc(C(=O)NCc3ccc(S(=O)(=O)C4CC4)cc3)c(N)c2c1C ?
**Result** 7.65

**Query** Which pEC50 reading was recorded for the compound Cc1nnc2sc(C(=O)NCc3ccc([S+](C)[O-])cc3)c(N)c2c1C (configuration not stated) ?
**Result** 6.86

**Query** Which pEC50 reading was recorded for the compound Cc1nnc2sc(C(=O)NCc3ccc(S(C)(=O)=O)cc3)c(N)c2c1C ?
**Result** 7.29

**Query** Which pEC50 reading was recorded for the compound Cc1nnc2sc(C(=O)NCc3ccc(S(=O)(=O)CF)cc3)c(N)c2c1C ?
**Result** 7.66

====

assay: Ratio of total drug level in brain to plasma (unknown origin); type: ADME, cell-free; details: brain and plasma
quantityKind: Kp
Write the number on its own, no unit after it.

COc1ccc(CNC(=O)c2sc3nc(C)cc(C)c3c2N)cc1 | 0.38

Consider the additional compound presented here.
**Query** Which Kp reading was recorded for the compound COc1ccc(CNC(=O)c2sc3nnc(C)c(C)c3c2N)cc1 ?
**Result** 0.28

====

test: Ratio of unbound concentration in brain to plasma in Sprague-Dawley rat at 0.20 to 0.25 mg/kg, iv administered through cassette dosing after 0.25 hrs; type: ADME, organism-based
quantityKind: K(p,uu,brain)
Write the number on its own, no unit after it.

Cc1nnc2sc(C(=O)NCc3ccc(S(=O)(=O)C(C)C)cc3)c(N)c2c1C | 0.67
Cc1nnc2sc(C(=O)NCc3ccc(S(=O)(=O)C(F)F)cc3)c(N)c2c1C | 0.1
Cc1nnc2sc(C(=O)NCc3ccc(S(=O)(=O)C(C)(C)C)cc3)c(N)c2c1C | 0.34
Cc1nnc2sc(C(=O)NCc3ccc(S(F)(F)(F)(F)F)cc3)c(N)c2c1C | 1
Cc1nnc2sc(C(=O)NCc3ccc(S(C)(=O)=O)cc3)c(N)c2c1C | 0.14

**Query** Which K(p,uu,brain) reading was recorded for the compound CSc1ccc(CNC(=O)c2sc3nnc(C)c(C)c3c2N)cc1 ?
**Result** 0.48

**Query** Which K(p,uu,brain) reading was recorded for the compound Cc1nnc2sc(C(=O)NCc3ccc(S(C)(=O)=O)c(F)c3)c(N)c2c1C ?
**Result** 2.8

**Query** Which K(p,uu,brain) reading was recorded for the compound Cc1nnc2sc(C(=O)NCc3ccc(S(=O)(=O)C4CC4)cc3)c(N)c2c1C ?
**Result** 0.29

====

molecular target: Muscarinic acetylcholine receptor M2 (Rattus norvegicus); assay: Binding affinity to rat M2 receptor by radio-ligand binding assay
Sequence (P10980 whole entry): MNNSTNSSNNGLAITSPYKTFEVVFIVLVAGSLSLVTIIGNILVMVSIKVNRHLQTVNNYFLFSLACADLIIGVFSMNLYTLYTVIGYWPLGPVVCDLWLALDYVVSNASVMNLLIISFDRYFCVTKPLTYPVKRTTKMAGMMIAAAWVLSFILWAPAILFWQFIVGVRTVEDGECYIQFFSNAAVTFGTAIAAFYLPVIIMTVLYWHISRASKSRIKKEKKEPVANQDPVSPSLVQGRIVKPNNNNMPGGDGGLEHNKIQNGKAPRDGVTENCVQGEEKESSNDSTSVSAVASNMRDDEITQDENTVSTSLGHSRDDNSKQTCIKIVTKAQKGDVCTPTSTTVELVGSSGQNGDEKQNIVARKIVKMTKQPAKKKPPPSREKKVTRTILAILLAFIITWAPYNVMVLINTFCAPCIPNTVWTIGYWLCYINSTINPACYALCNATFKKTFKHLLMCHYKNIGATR
EC50 overview

**Query** Which EC50 reading was recorded for the molecule Cc1nnc2sc(C(=O)NCc3ccc(S(F)(F)(F)(F)F)cc3)c(N)c2c1C ?
**Result** > 30 µM

**Query** Which EC50 reading was recorded for the molecule Cc1nnc2sc(C(=O)NCc3ccc(S(=O)(=O)C(F)F)cc3)c(N)c2c1C ?
**Result** > 30 µM

**Query** Which EC50 reading was recorded for the molecule Cc1nnc2sc(C(=O)NCc3ccc(S(=O)(=O)C(F)(F)F)cc3)c(N)c2c1C ?
**Result** > 30 µM

====

assay: Ratio of total drug level in brain to plasma in Sprague-Dawley rat at 0.20 to 0.25 mg/kg, iv administered through cassette dosing after 0.25 hrs; type: ADME, organism-based
Kp overview
Write the number on its own, no unit after it.

Cc1nnc2sc(C(=O)NCc3ccc(S(C)(=O)=O)c(F)c3)c(N)c2c1C | 0.51
Cc1nnc2sc(C(=O)NCc3ccc(S(C)(=O)=O)cc3)c(N)c2c1C | 0.04
Cc1nnc2sc(C(=O)NCc3ccc(S(=O)(=O)C4CC4)cc3)c(N)c2c1C | 0.05
Cc1nnc2sc(C(=O)NCc3ccc(S(=O)(=O)C(C)(C)C)cc3)c(N)c2c1C | 0.11

**Query** Which Kp reading was recorded for the compound CSc1ccc(CNC(=O)c2sc3nnc(C)c(C)c3c2N)cc1 ?
**Result** 0.13

====

target: Muscarinic acetylcholine receptor M4 (Homo sapiens) (UniProt P08173); test: Positive allosteric modulation of human M4 receptor expressed in CHO cells co-expressing Gqui5 by calcium mobilization assay relative to acetylcholine
Sequence (P08173 whole entry, looked up): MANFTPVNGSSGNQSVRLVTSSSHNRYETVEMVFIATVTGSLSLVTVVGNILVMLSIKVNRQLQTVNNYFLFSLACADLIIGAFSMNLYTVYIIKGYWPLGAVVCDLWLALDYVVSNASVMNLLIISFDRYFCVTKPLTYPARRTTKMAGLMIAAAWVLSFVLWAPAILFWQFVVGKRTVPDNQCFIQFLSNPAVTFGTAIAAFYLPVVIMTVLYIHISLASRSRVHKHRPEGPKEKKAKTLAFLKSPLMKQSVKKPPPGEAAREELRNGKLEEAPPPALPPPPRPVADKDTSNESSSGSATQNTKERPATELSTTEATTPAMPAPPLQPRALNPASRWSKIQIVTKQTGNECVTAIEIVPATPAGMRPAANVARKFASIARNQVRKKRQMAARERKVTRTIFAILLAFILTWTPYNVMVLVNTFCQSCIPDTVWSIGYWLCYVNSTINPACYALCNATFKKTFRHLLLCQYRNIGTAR
Emax overview
Number in %, nothing else.

**Query** Which Emax reading was recorded for the compound Cc1nnc2sc(C(=O)NCc3ccc(S(=O)(=O)CF)cc3)c(N)c2c1C ?
**Result** 62.5

**Query** Which Emax reading was recorded for the compound Cc1nnc2sc(C(=O)NCc3ccc(S(=O)(=O)C4CC4)cc3)c(N)c2c1C ?
**Result** 67.1

**Query** Which Emax reading was recorded for the compound Cc1nnc2sc(C(=O)NCc3ccc(S(=O)(=O)C(F)F)c(F)c3)c(N)c2c1C ?
**Result** 76.7

**Query** Which Emax reading was recorded for the compound Cc1nnc2sc(C(=O)NCc3ccc(S(=O)(=O)C(C)(C)C)cc3)c(N)c2c1C ?
**Result** 72.1

====

EC50 overview
biological target: UniProt:P08485; assay: Positive allosteric modulation of rat M4 receptor expressed in CHO cells co-expressing Gqui5 by calcium mobilization assay

Worked set:
Cc1nnc2sc(C(=O)NCc3cccc(S(C)(=O)=O)c3)c(N)c2c1C | 417 nM
Cc1nnc2sc(C(=O)NCc3ccc(S(C)(=O)=O)c(F)c3)c(N)c2c1C | 57.7 nM

Consider the additional compound presented here.
**Query** Which EC50 reading was recorded for the compound Cc1nnc2sc(C(=O)NCc3ccc(S(=O)(=O)C(F)F)cc3)c(N)c2c1C ?
**Result** 17.8 nM
